In this section, each of the compounds is paired with its reported viability at 48 h, 500 molar ratio.
Assay: Cytotoxicity against human Raji cells assessed as cell viability at 500 molar ratio after 48 hrs by trypan blue staining method
Assay type: cell-based
Settings: read-out: Activity

Examples with answers:
Which viability at 48 h, 500 molar ratio is reported for this compound? `C=C(C)[C@@H]1CC[C@]2(C(=O)O)CC[C@]3(C)[C@H](CC[C@@H]4[C@@]5(C)CC(=O)C(C)(C)[C@@H]5CC[C@]43C)[C@@H]12`
> 80%

viability at 48 h, 500 molar ratio lookup needed for `C=C(C)[C@@H]1CC[C@]2(C(=O)O)CC[C@]3(C)[C@H](CC[C@@H]4[C@@]5(C)CC[C@H](OC(=O)C=C(C)C)C(C)(C)[C@@H]5CC[C@]43C)[C@@H]12` , thanks.
> 80%

***
Entry under review: `C=C(C)[C@@H]1CC[C@]2(C(=O)O)CC[C@]3(C)[C@H](CC[C@@H]4[C@@]5(C)CC[C@H](OC(=O)CCC/C=C\C/C=C\C/C=C\C/C=C\C/C=C\CC)C(C)(C)[C@@H]5CC[C@]43C)[C@@H]12` . Reported viability at 48 h, 500 molar ratio?
> 80%
